Each entry below lists one item and its recorded growth inhibition value.
Assay: NCI Yeast Anticancer Drug Screen. Data for the sgs1 mgt1 strain (AID 161);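 note: 0% = growth of cultures given vehicle only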
Conditions: S. cerevisiae sgs1 mgt1 strain, at 50.0 µM, stronger effect = higher value
Description: Growth inhibition of yeast strains with defined genetic alterations is measured as a screen for potential anti-cancer activity. Selected strains with alterations in DNA damage repair or cell cycle control were exposed to compounds and growth inhibition was measured relative to vehicle treated controls. The strain used in this assay is sgs1 mgt1
The panel holds about 79,000 compounds, 15% with a hit somewhere; the sample as a whole holds those more often.
Recorded Metric: growth inhibition (%)

- Smiles Representation: "Cc1c(Cl)ccc([N+](=O)[O-])c1Cl"
  Unit Text: "%"
  Reported Result: -3.35
- Smiles Representation: "C/C(CC(=O)Nc1ccc(Cc2ccc(Cl)cc2)cc1)=N/Nc1ccc([N+](=O)[O-])cc1[N+](=O)[O-]"
  Unit Text: "%"
  Reported Result: 31.4
- Smiles Representation: "C(=C/c1ccc(-c2ccccc2)cc1)/c1ccc(-c2ccccc2)cc1"
  Unit Text: "%"
  Reported Result: 11.2

====

Each entry below lists one item and its recorded growth inhibition value.
Test: NCI Yeast Anticancer Drug Screen. Data for the mlh1 rad18 strain (AID 175)
Details: S. cerevisiae mlh1 rad18 strain growth inhibition; at 50.0 µM; stronger effect = higher value
Compounds without any hit were thinned out: in the full panel of roughly 79,000, 15% have a hit.
Recorded Metric: growth inhibition (%)

- Compound: "CSC(=NNC(N)=O)SC"
  Reported Result: 5.4
- Compound: "CCOC(=O)C(C(O)c1ccc([N+](=O)[O-])cc1)P(=O)(OCC)OCC (configuration not stated)"
  Reported Result: -20.2
- Compound: "C(=Nc1ccc2ccccc2c1)c1cccs1"
  Reported Result: -0.6
- Compound: "CC1(C)COC(c2c(F)cccc2Cl)=N1"
  Reported Result: 13.2
- Compound: "COc1cc([N+](=O)[O-])ccc1NC(=O)c1cccc([N+](=O)[O-])c1C(=O)O"
  Reported Result: 24.6
- Compound: "COC(=O)Oc1ccccc1C(=O)O"
  Reported Result: -5.55
- Compound: "CN(C)c1ccc(C(=O)CCCN2CCC(O)(c3ccc(Cl)cc3)CC2)cc1"
  Reported Result: 21.9
- Compound: "COc1cccc(NC(=O)N/C(=C/c2ccc(N(CCC#N)CCC#N)cc2)NC(=O)c2cc([N+](=O)[O-])ccc2Cl)c1"
  Reported Result: 36.5
- Compound: "Cc1cccc(C)c1NC(=O)C(Cl)(Cl)Sc1ccc(Cl)cc1Cl"
  Reported Result: -2.6
- Compound: "C=C(C)COC(=O)Nc1cccc(Cl)c1"
  Reported Result: 24.9
- Compound: "O=C(CSc1cc(Cl)c(Cl)cc1Cl)Nc1cccc(Cl)c1"
  Reported Result: 3.5
- Compound: "COC(=O)n1c(=O)oc2ccc(Br)cc21"
  Reported Result: 99.2
- Compound: "O=C(O)/C(=C\\c1ccccc1[N+](=O)[O-])c1ccc(Cl)cc1"
  Reported Result: -1.8
- Compound: "O=C(Nc1cc2ccccc2cc1C(=O)O)Nc1cccc2ccccc12"
  Reported Result: 30.3
- Compound: "O=C1c2ccccc2CC12CCC1(CC2)OCCO1"
  Reported Result: -23.6
- Compound: "CC(C)CCc1c(N)nc(N)[nH]c1=O"
  Reported Result: 3.75
- Compound: "CCC(C(CC(=O)c1ccccc1)c1ccccc1)[N+](=O)[O-] (configuration not stated)"
  Reported Result: -5.65
- Compound: "CN(C)c1ncnc2c1ncn2C1OC(CO)C(N)C1O (configuration not stated)"
  Reported Result: 20.6
- Compound: "CCOC(=O)/C(C=Nc1c(C)n(C)n(-c2ccccc2)c1=O)=C(/C)O"
  Reported Result: 23.6
- Compound: "Nc1nc2c(C(=O)N3CCCC3)nnn2c2cccc(Cl)c12"
  Reported Result: 0.05
- Compound: "CCOC(=O)C1=C(C)N(NC(=O)Nc2ccccc2)C2(N)N(NC(=O)Nc3ccccc3)C(C)=C(C(=O)OCC)C12C(=O)OCC (configuration not stated)"
  Reported Result: -15.8
- Compound: "CCOC(=O)c1ccc(NC(=S)N(CCC#N)C2CCCCC2)cc1"
  Reported Result: 30.9
- Compound: "CC(C)C1OC2(CCCC2)OCC1(C)C (configuration not stated)"
  Reported Result: -1.1
- Compound: "CCOC(=O)C1Sc2c(c(=O)n(C)c3ccccc23)C1=O (configuration not stated)"
  Reported Result: 41.2
- Compound: "C(=Nc1ccc(N2CCOCC2)cc1)c1ccc2c(c1)OCO2"
  Reported Result: -22
- Compound: "CN=c1ncc2nc(-c3ccccc3)c(-c3ccccc3)n(C)c-2n1"
  Reported Result: -24.4
- Compound: "CC1OCOC1C1OCOCC1OC(=O)c1ccccc1 (configuration not stated)"
  Reported Result: -5
- Compound: "O=C(O)C(=Cc1ccc([N+](=O)[O-])cc1)C(=O)O"
  Reported Result: -11.6
- Compound: "CCCc1c(Cl)nc(Cl)nc1Cl"
  Reported Result: -22.4
- Compound: "CCOC(=O)C(CC(Nc1ccccc1)(c1ccccc1)c1ccccc1)c1ccccc1 (configuration not stated)"
  Reported Result: -0.65
- Compound: "O=C1CCCC1Sc1ccccn1 (configuration not stated)"
  Reported Result: -32.2
- Compound: "O=C(O)/C=C/C(=O)Nc1cccc(C(F)(F)F)c1"
  Reported Result: -9.7
